FYI, the data here is from PubChem BioAssay.

tested on: XIP peptide (Xip251-270); test: small-molecule binders of XIP peptide, primary screen, biochemical, small-molecule microarray, fluorescence 635/667 nm, 0.5 µg/mL protein (AID 1183); conditions: small-molecule microarray binding, fluorescence 635 nm; higher = more signal

compound	subject of test	composite z-score
O=C1[C@H]2[C@H]3[C@H](O)[C@H](O)CC(=NO[C@@H]4O[C@H](CO)[C@@H](O)[C@H](O)[C@H]4O)[C@H]3CC[C@H]2C(=O)N1C[C@@H]1CCCO1	XIP peptide (Xip251-270)	0.184
CC(=O)OC[C@H]1O[C@H](CC=NOC(C)CN2CCCCc3nc(C)c(C)cc32)C=C[C@@H]1OC(C)=O (stereo partly drawn)	XIP peptide (Xip251-270)	0.646
COC(=O)[C@H](C)NC(=O)CCC1CC(OC(=O)NCc2cccc3ccccc23)CC2(CCCC(COC(=O)NCCc3ccccc3OC)O2)O1 (stereo partly drawn)	XIP peptide (Xip251-270)	0.384
O=C1C2=CC[C@H]3C(=O)N(Cc4ccccc4)C(=O)[C@H]3[C@H]2[C@H](O)[C@@H]2O[C@H]12	XIP peptide (Xip251-270)	-0.194
Cc1ccc(C(C)C)n1C(=O)OC(C)(C)C	XIP peptide (Xip251-270)	-0.0079
COc1ccc(COC(=O)NN=C2C[C@@H](O)[C@@H](O)[C@@H]3[C@@H]4C(=O)N(Cc5ccc6c(c5)OCO6)C(=O)[C@@H]4CC[C@H]23)cc1	XIP peptide (Xip251-270)	0.174
CCCCOC(OCCCC)C(O)CSc1ccc2ccccc2c1 (stereo not drawn)	XIP peptide (Xip251-270)	0.198
C#CCCCON=C1C[C@@H](O)[C@@H](O)[C@@H]2[C@@H]3C(=O)N(C[C@@H]4CCCO4)C(=O)[C@@H]3CC[C@H]12	XIP peptide (Xip251-270)	0.317
